The measurements presented in this section are drawn from PubChem BioAssay (NCI).

System: SK-OV-3 ovarian
Test: NCI-60 one-dose screen, 48 h (100 = growth as untreated, 0 = no growth, -100 = all killed)
Conditions: 10 µM unless noted
About 83,000 compounds went through this panel and 20% of them were active in at least one assay; those are over-represented in the sample as a whole.
Below, each entry is listed with its recorded growth.
// return numeric value only (unit: %, not printed)

CCCC(=O)Oc1ccc(/C(=C(/CC)Cc2ccccc2)c2ccc(OCCN3CCCC3)cc2)cc1 : 97
CCCCCCCCCC(=O)Oc1ccc(/C(=C(/C)Cc2cccc(OC)c2)c2ccc(OCCN(C)C)cc2)cc1 : 113

Lab book: growth of CCCCCCNC(=O)Oc1ccc(/C(=C(\C)c2ccccc2)c2ccc(OCCN(CC)CC)cc2)cc1 noted as 74.3

Lab book: growth of O=C1c2cccnc2C(=O)c2c1c(C(=O)OCCN1CCOCC1)c1ccccn21 noted as -0.946

Lab book: growth of CCCCCCCCSC1=CC(=O)C(OC)=C(OC)C1=O noted as 86.4

###

System: OVCAR-4 ovarian
Assay: NCI-60 one-dose screen, 48 h (100 = growth as untreated, 0 = no growth, -100 = all killed)
Settings: 10 µM unless noted
The panel holds about 83,000 compounds, 20% with a hit somewhere; the sample as a whole holds those more often.
Below, each entry is listed with its recorded growth.
// return numeric value only (unit: %, not printed)

Cc1ccc(N)cc1F : 113
O=C1/C(=C/c2ccc(F)cc2)CN(C(=O)CCN2CCC(=NO)CC2)C/C1=C\c1ccc(F)cc1 : -18.7
COc1cc(/C=N\NC(=O)CN2CCN(c3cc4c(cc3F)c(=O)c(C(=O)N/N=C/c3ccc(O)c(OC)c3)cn4C3CC3)CC2)ccc1O : 47.8

// moving on: another record for growth
Lab book: growth of CCN(CC)CCCC(C)Nc1ccnc2c(OC)cccc12 (stereo unspecified) noted as 111

###

Test system: SK-MEL-5 melanoma
Assay: NCI-60 one-dose screen, 48 h (100 = growth as untreated, 0 = no growth, -100 = all killed)
Conditions: 10 µM unless noted
The panel holds about 83,000 compounds, 20% with a hit somewhere; the sample as a whole holds those more often.
reported_metric: growth (%)
// return numeric value only (unit: %, not printed)

Lab book: growth of CCOC(=O)C(CC)n1c(=O)c2cc(OC)c(OC)cc2c2cnc3[nH]ccc3c21 (configuration not stated) noted as 80.9

###

System: T-47D breast
Test: NCI-60 one-dose screen, 48 h
Settings: 10 µM unless noted
Protocol: Growth inhibition of the T-47D human tumor cell line is measured as a screen for anti-cancer activity. Cells are grown in 96 well plates and exposed to the test compound for 48 hours. Compounds are tested at a single concentration, which is 10^-5 M for most compounds. The reported endpoint is percent growth (GI% or GIPRCNT), where numbers from 0 - 100% represent growth inhibition, and numbers from -100% - 0 represent cell death. For example, a value of 40 represents 60% growth inhibition. […]
About 83,000 compounds went through this panel and 20% of them were active in at least one assay; those are over-represented in the sample as a whole. Calls of active or inactive are those of the source. How the source made its calls: active means growth percent below 10; inactive means the rest.
Log the outcome using a class from yes (active), no (inactive)

Illustrative cases are given below, each with its answer.
O=C1c2cccnc2C(=O)c2c1c(C(=O)OCCN1CCOCC1)c1ccccn21 : yes
O=C1NC(=O)C(CC(=O)n2c(-c3ccccc3)nc3ccccc32)C(=O)N1 : no
C/C(=C(/c1ccc(O)cc1)c1ccc(Cl)cc1)c1ccccc1 : yes
COC1=CC(=O)C(OC)=C(OC)C1=O : no
O=C(Nc1ccc(CN2CCOCC2)cc1)c1[nH]ncc1Nc1ncnc2sccc12 : no
COc1ccc(-c2cc(-c3ccc(N(C)C)cc3)nc(NC(=O)c3ccncc3)n2)cc1 : no
Cc1ccc(/C=C2\Oc3cc(OCC(=O)c4ccc(Cl)cc4)ccc3C2=O)cc1 : no
Cc1cc(Nc2nc(N3CCN(C)CC3)nc3ccccc23)n[nH]1 : no
C(=N\Nc1nnn(Cc2ccccc2)n1)/c1ccccc1 : no
COc1cc(OC)c(/C=C/S(=O)(=O)Cc2cnc(OC)c(N)c2)c(OC)c1 : no

Let us examine a further case.
[in] Which outcome was entered for the compound O=C(Nc1cccc2c1C(=O)c1cccc(Nc3cccc4c3C(=O)c3cccc(NC(=O)c5ccccc5)c3C4=O)c1C2=O)c1ccccc1 in this test?
[out] no
